Hey, just so you know, these numbers are from PubChem BioAssay (NCI).

system: MALME-3M melanoma; experiment: NCI tumour cell line growth inhibition, 48 h
MEASURED_ENDPOINT: TGI

Respond only with TGI recorded for "COc1ccccc1/C=N/N=C(\N)NO"
> 100 µM

Respond only with TGI recorded for "COc1ccc(/C(C)=N/NC(=O)c2ccncc2)cc1OC"
> 10 µM

Respond only with TGI recorded for "CC(C)c1nc2c(Cl)c3ncccc3cc2[nH]c1=O"
> 100 µM

* * *

Record form. Attribute: TGI. Fill in for each entry.
system: SK-MEL-28 melanoma; assay: NCI tumour cell line growth inhibition, 48 h
Expressed in µM, but write only the number.

Respond only with TGI recorded for "COC(=O)/C(=C\c1cn(C(C)=O)c2ccccc12)P(=O)(OC)OC"
55.1

Respond only with TGI recorded for "CCN(CC)CCC(=O)c1ccc(Oc2ccccc2)cc1"
32.5

Respond only with TGI recorded for "O=C(CCCCCCC(=O)Nc1ccc2c(c1)/C(=C/c1ccc[nH]1)C(=O)N2)NO"
9.3

Respond only with TGI recorded for N#CC1=C(N)Oc2c(sc3c(F)cccc23)C1c1ccc(F)cc1 (stereo unspecified)
19.7

Respond only with TGI recorded for "O=C1/C(=C/c2ccc(Cl)cc2)COc2ccc(O)c(O)c21"
3.06

* * *

tested on: HT29 colon; assay: NCI tumour cell line growth inhibition, 48 h
MEASURED_ENDPOINT: GI50

Respond only with GI50 recorded for "O=C(N/N=C\c1ccc(N(CCCl)CCCl)cc1Cl)c1cccnc1"
20.2 µM

Respond only with GI50 recorded for "Oc1ccc(N=Nc2ccc(N=Nc3ccccc3)cc2)cc1"
2.86 µM

Respond only with GI50 recorded for "NCCCCN(Cc1nc2ccccc2[nH]1)[C@H]1CCCc2cccnc21"
6.29 µM

Respond only with GI50 recorded for "CCOC(=O)C#Cc1c(CC(=O)OCC)nnn1[C@H]1O[C@@H](CO)[C@@H]2OC(C)(C)O[C@@H]21"
2.13 µM

Respond only with GI50 recorded for CC1/C(=N/Nc2ccc([N+](=O)[O-])cc2)CC2C3(C)CCC2(C(C)C(=O)O)C(=O)C13 (stereo not given)
6.18 µM

* * *

tested on: MDA-MB-231 breast; assay: NCI tumour cell line growth inhibition, 48 h
MEASURED_ENDPOINT: TGI

Respond only with TGI recorded for CC[N+]1(C)CCC(O)(/C=C/c2ccc(Cl)cc2)C(C(=O)/C=C/c2ccc(Cl)cc2)C1 (stereo unspecified)
> 31.5 µM

Respond only with TGI recorded for "COc1cc(-c2oc(C=Nc3ccccc3)c([N+](=O)[O-])c2-c2ccc(O)c(OC)c2)ccc1O"
> 95.7 µM

Respond only with TGI recorded for "Cc1cc(-c2nc3cc(O)ccc3s2)ccc1N"
> 100 µM

Respond only with TGI recorded for "CO/N=C(/C(=O)OC)c1ccccc1COc1cccc(C(F)(F)F)c1"
> 100 µM

Respond only with TGI recorded for "CS(=O)(=O)Nc1cc(-c2ccc3ncnc(Nc4ccc5c(cnn5Cc5ccccc5F)c4)c3c2)cnc1Cl"
> 100 µM

Respond only with TGI recorded for "COc1cccc(C[C@H]2COC(=O)[C@]2(O)Cc2cccc(OC)c2)c1"
> 100 µM

* * *

Record form. Attribute: TGI. Fill in for each entry.
tested on: NCI-H522 lung; assay: NCI tumour cell line growth inhibition, 48 h

Tell me its TGI on NCI-H522 lung: "Cc1csc2nc3[nH]ncc3c(=O)n12"
> 100 µM

Tell me its TGI on NCI-H522 lung: "O=S1c2ccccc2SCSc2ccccc21"
> 100 µM

Tell me its TGI on NCI-H522 lung: C/C(=N\O)C(CN1CCCCC1)C(c1ccccc1)c1c(O)c2ccccc2oc1=O (stereo not drawn)
> 100 µM

* * *

tested on: EKVX NSCLC; test: NCI tumour cell line growth inhibition, 48 h
Record form. Attribute: TGI. Fill in for each entry.
Expressed in µM, but write only the number.

Respond only with TGI recorded for "CCCCCCCCCCCC[n+]1ccc(C(N)=O)cc1"
12.8

Respond only with TGI recorded for "COC(=O)[C@@]1(O)C[C@H]2O[C@]1(C)n1c3ccccc3c3c4c(c5c6ccccc6n2c5c31)C(=O)NC4"
7.58

Respond only with TGI recorded for "S=C(Nc1ccccc1)N(Cc1ccccc1)c1ccccc1"
58.4

Respond only with TGI recorded for OC(CNc1ccnc2cc(Cl)ccc12)CNC1CCCCC1 (configuration not stated)
27

Respond only with TGI recorded for "C=C1CC[C@@H]2[C@](C)(COC(C)=O)[C@H](OC(C)=O)CC[C@@]2(C)[C@@H]1C/C=C1/C(=O)OC[C@H]1OC(C)=O"
25.6

* * *

test system: K-562 leukemia; assay: NCI tumour cell line growth inhibition, 48 h
MEASURED_ENDPOINT: TGI

Respond only with TGI recorded for CCN1C[C@]2(C)CC[C@H](OCc3ccccc3)C34C5C[C@@H]6CC[C@](O)(C(C[C@@H]32)C14)C5[C@H]6OCc1ccccc1 (stereo partly drawn)
> 100 µM

Respond only with TGI recorded for "FC(F)(F)C1(C(F)(F)F)O[SiH]2(OC(C(F)(F)F)(C(F)(F)F)c3ccccc32)c2ccccc21"
31.6 µM

Respond only with TGI recorded for "Cc1ccc(S(=O)(=O)NC2=NS(=O)(=O)c3cc(C)c(Cl)cc3S2)cc1"
> 100 µM

* * *

test system: NCI-H522 lung; experiment: NCI tumour cell line growth inhibition, 48 h
MEASURED_ENDPOINT: TGI

Respond only with TGI recorded for "COc1cc(/C=C/C(=O)c2c(C)n([O-])c3ccc(Cl)cc3[n+]2=O)cc(OC)c1OC"
> 100 µM

Respond only with TGI recorded for "Cc1cc(N)ccc1C=O"
> 100 µM

Respond only with TGI recorded for O=C(OC(/C=C/c1ccccc1)P1(=O)N(Cc2ccccc2)[C@@H]2CCCC[C@H]2N1Cc1ccccc1)c1ccccc1 (stereo partly drawn)
> 30.6 µM

Respond only with TGI recorded for "Clc1ccc(-c2nc3ccc(C45CC6CC(CC(C6)C4)C5)cc3[nH]2)cc1"
> 100 µM

Respond only with TGI recorded for "OC(C/C(=N\N=C(/CC(O)(C(F)(F)F)C(F)(F)F)c1ccccc1)c1ccccc1)(C(F)(F)F)C(F)(F)F"
> 10 µM

Respond only with TGI recorded for "CCOC(=O)NC(=O)c1cn(CCN2CCN(C(=O)NCCCCCCNC(=O)N3CCN(CCn4cc(C(=O)NC(=O)OCC)c(=O)n(CCN(CC)CC)c4=O)CC3)CC2)c(=O)n(CCC(CC)CC)c1=O"
> 100 µM

Respond only with TGI recorded for "COC(=O)/C(=C\c1cn(C(C)=O)c2ccccc12)P(=O)(OC)OC"
23.2 µM

Respond only with TGI recorded for "CN(C)CCNC(=O)c1cc2c3ccccc3[nH]c2c2ncccc12"
24.5 µM

Respond only with TGI recorded for COc1ccc(NS(=O)c2ccc(OC)cc2)cc1 (stereo not drawn)
> 100 µM

Respond only with TGI recorded for "CCOC(=O)C1=NN(c2ccccc2)C2=CC(C)=NN(C)C(=S)N21"
> 100 µM

Respond only with TGI recorded for CC(=O)c1cccc(NC(=O)C(=O)C(C(=O)c2ccccc2F)C2OC(=O)c3ccccc32)c1 (stereo not drawn)
56.7 µM

Respond only with TGI recorded for "O=C(N/C(=C\c1ccc(Oc2ccc(Cl)c(Cl)c2)cc1)c1nc2ccccc2[nH]1)c1ccccc1"
35.5 µM

Respond only with TGI recorded for Cc1nn(C(=O)Cc2ccccc2)c2c1C(c1ccccc1[N+](=O)[O-])SC(N)=N2 (stereo not drawn)
> 100 µM

* * *

system: UO-31 renal; assay: NCI tumour cell line growth inhibition, 48 h
Record form. Attribute: TGI. Fill in for each entry.
Expressed in µM, but write only the number.

Respond only with TGI recorded for "CN(C)CCCNc1ccc2nnn3c4ccc(OC(=O)c5ccc([N+](=O)[O-])cc5)cc4c(=O)c1c23"
21

Respond only with TGI recorded for "COC(=O)/C(=C\c1cn(C(C)=O)c2ccccc12)P(=O)(OC)OC"
26.1

* * *

system: NCI-H460 lung; assay: NCI tumour cell line growth inhibition, 48 h
Where a SMILES comes first, the peptide text is derived from it. The star is where a group is joined. Cbz = O=C(OCc1ccccc1)*
MEASURED_ENDPOINT: TGI

Tell me its TGI on NCI-H460 lung: COC(=O)CCC(C)C1CCC2C3CCC4CC5CCC4(C)C3(O5)C(Br)C(Br)C12C (configuration not stated)
> 100 µM

Tell me its TGI on NCI-H460 lung: "COc1ccc(CCc2ccccc2CC(=O)O)cc1"
> 100 µM

Tell me its TGI on NCI-H460 lung: CCCN(CCC)C(=O)[C@H](CC)[C@@H]1CC[C@@H](C)[C@@H]([C@H](C)[C@@H](O)[C@@H](C)C(=O)[C@H](CC)C2O[C@]3(C=C[C@@H](O)[C@]4(CC[C@@](C)([C@H]5CC[C@](O)(CC)[C@H](C)O5)O4)O3)[C@H](C)C[C@@H]2C)O1 (some centres not stated)
4.62 µM

Tell me its TGI on NCI-H460 lung: "S=C(Nc1ccccc1)N(Cc1ccccc1)c1ccccc1"
> 100 µM

Tell me its TGI on NCI-H460 lung: CSC(=S)OC1C(CO[Si](C)(C)C(C)(C)C)OC2OC(C)(C)OC21 (configuration not stated)
32.8 µM

Tell me its TGI on NCI-H460 lung: "Nc1cccc(C#Cc2cccc(C#Cc3cccc(N)n3)n2)n1"
> 100 µM

Tell me its TGI on NCI-H460 lung: CCOC(=O)C(CC(=O)OC)NC(=O)C(CC(=O)OC)NC(=O)C(CC(=O)OC)NC(=O)C(CC(=O)OC)NC(=O)OCc1ccccc1 (configuration not stated) (Cbz-D(OMe)D(OMe)D(OMe)D(OMe)-OEt; configuration not given here)
> 100 µM
